Source listed as ChEMBL document CHEMBL5058577.

Quick reference for Population Apoptotic (%) among some molecules
- System: Fibroblast
- assay-explanation: Multiplex assay against human fibroblast
- Format: toxicity, cell-based
- settings: 24 h, 1 µM, compound concentration 1 uM, replicate 1
Field: numeric (%). Do not append units.

Request - read-out Population Apoptotic (%) | tested on Fibroblast | molecule CN(C)C/C=C/C(=O)Nc1ccc(C(=O)N2CCCC(Nc3ncc(Cl)c(-c4c[nH]c5ccccc45)n3)C2)cc1 (configuration not stated)
68

Request - read-out Population Apoptotic (%) | tested on Fibroblast | molecule O=c1ccc2ccc(OCCCCN3CCN(c4cccc5sccc45)CC3)cc2[nH]1
56

Request - read-out Population Apoptotic (%) | tested on Fibroblast | molecule Cc1cc(=O)n(C)c2cc(N3C(=O)CC[C@H](NS(=O)(=O)CC(C)C)[C@H]3c3ccc(Cl)cc3)ccc12
34

Request - read-out Population Apoptotic (%) | tested on Fibroblast | molecule CC(C)(O)C(=O)N1CCN(c2ccc(C(F)(F)F)c(C3=C(c4c[nH]c5ccccc45)C(=O)NC3=O)c2)CC1
50

Request - read-out Population Apoptotic (%) | tested on Fibroblast | molecule CCn1c(-c2nc3cc(C(=O)N4CCCC(N)C4)ccc3n2C)cc2ccccc21.Cl (configuration not stated)
50

Request - read-out Population Apoptotic (%) | tested on Fibroblast | molecule CCc1nn2c(C)cc(C)nc2c1Cc1ccc(-c2nnc(C3CCNCC3)o2)cc1
52

Request - read-out Population Apoptotic (%) | tested on Fibroblast | molecule Cc1cc(O)c(-c2ccc([C@@H](C)CN(C)C)cc2)c2c1[nH]c(=O)c1sccc12
45

Request - read-out Population Apoptotic (%) | tested on Fibroblast | molecule CN(C)C(=O)Cn1cc(-c2ccc(-c3nnc4ccccn34)cc2)cn1
56
